Let's look at some compounds and their measured Plant response rating, Ducksalad.
# System: ducksalad (Heteranthera limosa)
# test: Test B flooded paddy test
# Assay type: in vivo
# condition label: Flood, 250 g ai/ha; 0 to 100 scale where 0 is no effect and 100 is complete control; 13 to 15 d
Returns: the value as a bare number; no unit string appended.

Check out these entries, answers already filled in.
>>> readout_value("CN1CC(c2ccc3c(c2)OC(F)(F)O3)C(C(=O)Nc2ccccc2S(C)(=O)=O)C1=O (stereo not shown) [Compound 443]")
80
>>> readout_value("Cc1ccc(C2CN(C)C(=O)C2C(=O)Nc2ccccc2F)cc1 (stereo not shown) [Compound 661]")
100
>>> readout_value("CN1CC(c2cc(F)cc(F)c2)C(C(=O)Nc2cccc(F)c2F)C1=O (stereo not shown) [Compound 644]")
98

Reported Plant response rating, Ducksalad ( CC(C)Oc1cccc(C2CN(C)C(=O)C2C(=O)Nc2ccccc2S(C)(=O)=O)c1 (stereo not shown) [Compound 653] ) = 40
